B1: mRNA-splicing (parent)
chain: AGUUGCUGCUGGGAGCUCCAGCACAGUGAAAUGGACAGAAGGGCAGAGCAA

Variants of: B1
Assay: exon inclusion enrichment index; higher = more inclusion; WT1 exon 5 minigene, HEK293
Give Fulfilled when the value for exon inclusion enrichment index is at least 0.4. Give Not fulfilled when it is less.

1) C6A U7A C9A U10A U27A G28U :: Not fulfilled

In plain terms: is recorded exon inclusion enrichment index at least 0.4 for G5C U7G U10C ? Fulfilled

Given the entry C6A U7A C9A U10A G26C U27G , answer whether its exon inclusion enrichment index meets or surpasses 0.4. Fulfilled

Tell me whether exon inclusion enrichment index is at least 0.4 here: G5C C6A U7C G8A U10A A45C G46A Not fulfilled

Test whether the variant G5A C6U U7A G8U C9A G26C U27G records exon inclusion enrichment index of 0.4 or higher. Fulfilled

For this variant, is measured exon inclusion enrichment index 0.4 or higher? G5A C6G U7G C9A G12U G13U Not fulfilled

Has G5U G8U C9U A37U a recorded exon inclusion enrichment index greater than or equal to 0.4? Not fulfilled

API: above_or_equal(metric=exon inclusion enrichment index, cutoff=0.4) for item C6A U7C C9A U10C G46C A47G Fulfilled
